TARGET_ENTITY: T1, alpha-s1 casein from Bos taurus
T1 chain: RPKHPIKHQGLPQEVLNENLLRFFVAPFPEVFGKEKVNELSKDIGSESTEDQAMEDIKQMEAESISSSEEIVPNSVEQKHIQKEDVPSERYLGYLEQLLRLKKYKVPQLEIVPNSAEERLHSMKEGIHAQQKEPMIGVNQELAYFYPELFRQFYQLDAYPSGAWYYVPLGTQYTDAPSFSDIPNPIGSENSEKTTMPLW
OUTCOME_MEASURE: αs1-I CN, 24 hours, 11° C. (Volume)
Express your answer in Volume, writing the number without its unit.

Quick one: αs1-I CN, 24 hours, 11° C. for camel chymosin variant #136 (F223C) (protein) GKVAREPLTSYLDSQYFGKIYIGTPPQEFTVVFDTGSSDLWVPSIYCKSNVCKNHHRFDPRKSSTFRNLGKPLSIHYGTGSMEGFLGYDTVTVSNIVDPNQTVGLSTEQPGEVFTYSEFDGILGLAYPSLASEYSVPVFDNMMDRHLVARDLFSVYMDRNGQGSMLTLGAIDPSYYTGSLHWVPVTLQQYWQFTVDSVTINGVAVACVGGCQAILDTGTSVLCGPSSDILKIQMAIGATENRYGEFDVNCGNLRSMPTVVFEINGRDYPLSPSAYTSKDQGFCTSGFQGDNNSELWILGDVFIREYYSVFDRANNRVGLAKAI ?
2.03e+07

# get_value(readout='αs1-I CN, 24 hours, 11° C.', item= bovine chymosin B variant #7 (K221V) (protein) GEVASVPLTNYLDSQYFGKIYLGTPPQEFTVLFDTGSSDFWVPSIYCKSNACKNHQRFDPRKSSTFQNLGKPLSIHYGTGSMQGILGYDTVTVSNIVDIQQTVGLSTQEPGDVFTYAEFDGILGMAYPSLASEYSIPVFDNMMNRHLVAQDLFSVYMDRNGQESMLTLGAIDPSYYTGSLHWVPVTVQQYWQFTVDSVTISGVVVACEGGCQAILDTGTSVLVGPSSDILNIQQAIGATQNQYGEFDIDCDNLSYMPTVVFEINGKMYPLTPSAYTSQDQGFCTSGFQSENHSQKWILGDVFIREYYSVFDRANNLVGLAKAI )
1.82e+07

Find the recorded αs1-I CN, 24 hours, 11° C. belonging to camel chymosin variant #145 (F223I) (protein) GKVAREPLTSYLDSQYFGKIYIGTPPQEFTVVFDTGSSDLWVPSIYCKSNVCKNHHRFDPRKSSTFRNLGKPLSIHYGTGSMEGFLGYDTVTVSNIVDPNQTVGLSTEQPGEVFTYSEFDGILGLAYPSLASEYSVPVFDNMMDRHLVARDLFSVYMDRNGQGSMLTLGAIDPSYYTGSLHWVPVTLQQYWQFTVDSVTINGVAVACVGGCQAILDTGTSVLIGPSSDILKIQMAIGATENRYGEFDVNCGNLRSMPTVVFEINGRDYPLSPSAYTSKDQGFCTSGFQGDNNSELWILGDVFIREYYSVFDRANNRVGLAKAI and report it.
1.17e+07

Which αs1-I CN, 24 hours, 11° C. is reported for this protein? camel chymosin variant #149 (Q288R) (protein) GKVAREPLTSYLDSQYFGKIYIGTPPQEFTVVFDTGSSDLWVPSIYCKSNVCKNHHRFDPRKSSTFRNLGKPLSIHYGTGSMEGFLGYDTVTVSNIVDPNQTVGLSTEQPGEVFTYSEFDGILGLAYPSLASEYSVPVFDNMMDRHLVARDLFSVYMDRNGQGSMLTLGAIDPSYYTGSLHWVPVTLQQYWQFTVDSVTINGVAVACVGGCQAILDTGTSVLFGPSSDILKIQMAIGATENRYGEFDVNCGNLRSMPTVVFEINGRDYPLSPSAYTSKDQGFCTSGFRGDNNSELWILGDVFIREYYSVFDRANNRVGLAKAI
2.25e+07
